Values compiled from the Deep4Chem optical property database.

# protocol-text: solvent given as SMILES
# measurement-setup: in ClC(Cl)Cl
Binary call on fluorescence lifetime with cut-off 4 ns: strictly below means 1.0, and equality or higher means 0.0.

[[record]]
structure = "COc1ccc(C#Cc2ccc(C#Cc3ccc(C#Cc4ccccc4C#N)cc3C#N)cc2C#N)cc1"
label_class = 1.0

[[record]]
structure = "COc1ccc(-c2oc3cccc4c5c(-c6ccc(OC)c(OC)c6)c(=N)oc6cccc(c2c34)c65)cc1OC"
label_class = 1.0

[[record]]
structure = "CCN1C(=CC2=C([O-])C(=CC3=[N+](CC)c4ccccc4C3(C)C)C2=O)C(C)(C)c2ccccc21"
label_class = 1.0

[[record]]
structure = "CC[Si](CC)(CC)c1cc2ccc3cccc4ccc(c1C(=O)NC(C)(C)C)c2c34"
label_class = 0.0

[[record]]
structure = "Cc1cc(C2=Cc3cccc[n+]3[B-](F)(F)O2)ccc1N(C)C"
label_class = 1.0

[[record]]
structure = "CC(C)(C)c1ccc(Oc2c3c4c(cc(Oc5ccc(C(C)(C)C)cc5)c5c6c(Oc7ccc(C(C)(C)C)cc7)c(Oc7ccc(C(C)(C)C)cc7)c7c8c(cc(Oc9ccc(C(C)(C)C)cc9)c(c(c2Oc2ccc(C(C)(C)C)cc2)c45)c86)C(=O)OC7=O)C(=O)OC3=O)cc1"
label_class = 0.0


* * *

# fluorescence lifetime per entry
# protocol-text: solvent given as SMILES
# measurement-setup: in CCCCCO
measured-quantity: fluorescence lifetime (ns)

[[record]]
compound = "COC(=O)C(Cc1ccc2oc(-c3ccc(Nc4ccccc4)cc3)nc2c1)NC(=O)OC(C)(C)C (centres undefined)"
assay_result = 2.89

[[record]]
compound = "COC(=O)C(Cc1ccc2oc(-c3ccc4c(c3)c3ccccc3n4-c3ccccc3)nc2c1)NC(=O)OC(C)(C)C (centres undefined)"
assay_result = 1.54

[[record]]
compound = "CCC1(CC)c2cc(-c3ccc(-c4ccc5c(c4)C(CC)(CC)c4cc(C(C)(C)C)ccc4-5)cc3)ccc2-c2ccc(C(C)(C)C)cc21"
assay_result = 0.77

[[record]]
compound = "CCC1(CC)c2cc(-c3ccc4c(c3)C(CC)(CC)c3cc(C(C)(C)C)ccc3-4)ccc2-c2ccc(-c3ccc4c(c3)C(CC)(CC)c3cc(C(C)(C)C)ccc3-4)cc21"
assay_result = 0.76


* * *

# fluorescence lifetime per entry
# protocol-text: solvent given as SMILES
# measurement-setup: in CC1COC(=O)O1
measured-quantity: fluorescence lifetime (ns)

[[record]]
compound = "COC(=O)C(Cc1ccc2oc(-c3ccc(N(C)C)cc3)nc2c1)NC(=O)OC(C)(C)C (centres undefined)"
measured_quantity = "fluorescence lifetime"
assay_result = 1.41

[[record]]
compound = "COC(=O)C(Cc1ccc2oc(-c3ccc4c(c3)c3ccccc3n4-c3ccccc3)nc2c1)NC(=O)OC(C)(C)C (centres undefined)"
measured_quantity = "fluorescence lifetime"
assay_result = 1.83

[[record]]
compound = "COC(=O)C(Cc1ccc2oc(-c3ccc(Nc4ccccc4)cc3)nc2c1)NC(=O)OC(C)(C)C (centres undefined)"
measured_quantity = "fluorescence lifetime"
assay_result = 1.98

[[record]]
compound = "COC(=O)C(Cc1ccc2oc(-c3ccc(N(C)c4ccccc4)cc3)nc2c1)NC(=O)OC(C)(C)C (centres undefined)"
measured_quantity = "fluorescence lifetime"
assay_result = 4.3


* * *

# protocol-text: solvent given as SMILES
# measurement-setup: in CCCCO
# fluorescence lifetime per entry
measured-quantity: fluorescence lifetime

[[record]]
molecule = "O=C1CCCc2c1[nH]c1cc3c(cc21)OCO3"
assay_result = "1.12 ns"

[[record]]
molecule = "Cc1c2oc3c(C)c(N)cc(C(=O)NC4OC(=O)C(C(C)C)N(C)C(=O)CN(C)C(=O)C5CCCN5C(=O)C(C(C)C)NC4=O)c3nc-2c(C(=O)NC2OC(=O)C(C(C)C)N(C)C(=O)CN(C)C(=O)C3CCCN3C(=O)C(C(C)C)NC2=O)c(N)c1=O (stereo not given)"
assay_result = "1.5 ns"

[[record]]
molecule = "CCN(CC)c1ccc2c(C)cc(=O)oc2c1"
assay_result = "3.55 ns"

[[record]]
molecule = "COC(=O)C(Cc1ccc2oc(-c3ccc(N(C)C)cc3)nc2c1)NC(=O)OC(C)(C)C (stereo not given)"
assay_result = "1.29 ns"

[[record]]
molecule = "COc1ccc(C2=C3C(C)=CC(C)=[N+]3[B-](F)(F)n3c(/C=C/c4ccc(N(C)C)cc4)cc(C)c32)cc1"
assay_result = "2.45 ns"

[[record]]
molecule = "COC(=O)C(Cc1ccc2oc(-c3ccc(Nc4ccccc4)cc3)nc2c1)NC(=O)OC(C)(C)C (stereo not given)"
assay_result = "2 ns"

[[record]]
molecule = "CC1=C(C(C)(C)C)C(C)=[N+]2C1=C(C)c1c(C)c(C(C)(C)C)c(C)n1[B-]2(F)F"
assay_result = "4.33 ns"

[[record]]
molecule = "CCC1(CC)c2cc(-c3ccc(-c4ccc5c(c4)C(CC)(CC)c4cc(C(C)(C)C)ccc4-5)cc3)ccc2-c2ccc(C(C)(C)C)cc21"
assay_result = "0.79 ns"

[[record]]
molecule = "COC(=O)C(Cc1ccc2oc(-c3ccc4c(c3)c3ccccc3n4-c3ccccc3)nc2c1)NC(=O)OC(C)(C)C (stereo not given)"
assay_result = "1.54 ns"

[[record]]
molecule = "COc1cc2[nH]c3c(c2cc1OCC(=O)O)CCCC3=O"
assay_result = "1.29 ns"

[[record]]
molecule = "CN(C)c1ccc(/C=C/C=C2\\CC/C(=C\\c3ccc(N(C)C)cc3)C2=O)cc1"
assay_result = "1.25 ns"

[[record]]
molecule = "CC/C=C/C=C/C=C/C=C/CCCCCCCC(=O)O"
assay_result = "1.5 ns"

[[record]]
molecule = "COC(=O)C(Cc1ccc2oc(-c3ccc(N(C)c4ccccc4)cc3)nc2c1)NC(=O)OC(C)(C)C (stereo not given)"
assay_result = "3.97 ns"

[[record]]
molecule = "CN(C)c1ccc(/C=C/C=C2\\CC/C(=C\\C=C\\c3ccc(N(C)C)cc3)C2=O)cc1"
assay_result = "0.37 ns"

[[record]]
molecule = "CN(C)c1ccc(/C=C2\\CC/C(=C\\c3ccc(C#N)cc3)C2=O)cc1"
assay_result = "0.22 ns"

[[record]]
molecule = "CCNc1ccc2c(C(F)(F)F)cc(=O)oc2c1"
assay_result = "5.24 ns"

[[record]]
molecule = "N#Cc1coc2ccccc2c1=O"
assay_result = "0.96 ns"

[[record]]
molecule = "N#Cc1ccc(C[C@H](N)C(=O)O)cc1"
assay_result = "4.6 ns"

[[record]]
molecule = "CCC1=C(C)C2=C(C)c3c(C)c(CC)c(C)n3[B-](F)(F)[N+]2=C1C"
assay_result = "5.98 ns"

[[record]]
molecule = "O=C1c2ccc3c4ccc5c6c(ccc(c7ccc(c2c37)C(=O)N1c1ccncc1)c64)C(=O)N(c1ccncc1)C5=O"
assay_result = "1.85 ns"

[[record]]
molecule = "CCC1(CC)c2cc(-c3ccc4c(c3)C(CC)(CC)c3cc(C(C)(C)C)ccc3-4)ccc2-c2ccc(-c3ccc4c(c3)C(CC)(CC)c3cc(C(C)(C)C)ccc3-4)cc21"
assay_result = "0.78 ns"

[[record]]
molecule = "CC1(C)Nc2cc(Cl)ccc2-c2[nH]c3ccccc3c(=O)c21"
assay_result = "9.26 ns"

[[record]]
molecule = "CCCCCCC(CCCCCC)N1C(=O)c2cccc3c(-c4ccc(-c5ccc(OC)cc5)cc4)ccc(c23)C1=O"
assay_result = "1.05 ns"

[[record]]
molecule = "CCCCCCC(CCCCCC)N1C(=O)c2cccc3c(-c4cc(OC)c(OC)c(OC)c4)ccc(c23)C1=O"
assay_result = "0.208 ns"

[[record]]
molecule = "O=C([O-])c1ccccc1-c1c2ccc(=O)cc-2oc2cc([O-])ccc12"
assay_result = "4.4 ns"

[[record]]
molecule = "COc1ccc2c(=O)c3c([nH]c2c1)-c1ccccc1NC3(C)C"
assay_result = "10.2 ns"

[[record]]
molecule = "CCCN1C(=O)C(=CC=CC=C2Oc3ccccc3N2CCCS(=O)(=O)[O-])C(=O)N(CCC)C1=S"
assay_result = "0.821 ns"

[[record]]
molecule = "CCC1(CC)c2cc(-c3ccc(C(C)(C)C)cc3)ccc2-c2ccc(-c3ccc4c(c3)C(CC)(CC)c3cc(-c5ccc6c(c5)C(CC)(CC)c5cc(-c7ccc(C(C)(C)C)cc7)ccc5-6)ccc3-4)cc21"
assay_result = "0.64 ns"

[[record]]
molecule = "COc1cc(OC)cc(-c2ccc(-c3ccc(C#N)s3)s2)c1"
assay_result = "0.24 ns"

[[record]]
molecule = "COc1ccc2cc([C@H](C)C(=O)O)ccc2c1"
assay_result = "11.4 ns"

